From various publications: IC50 for Serine/threonine-protein kinase mTOR (Homo sapiens, UniProt P42345).

Example cases with answers are listed next.
CNC(=O)c1ccc(NC(=O)Nc2ccc(-c3nc(N4CCOCC4)c4ccc(-c5cncnc5)cc4n3)cc2F)cc1 | 50 to 200 nM
Cc1nn(C)c(C)c1-n1c(=O)n(C)c2cnc3ccc(-c4cnc(N)c(F)c4)cc3c21 | 481 nM
CS(=O)(=O)N1CCC(Cn2c(=O)[nH]c3ncc(-c4cnc5[nH]ccc5c4)cc32)CC1 | < 50 nM
Cc1nn(C)cc1-n1c(=O)n(C)c2cnc3ccc(-c4cnc(Cl)c(N)c4)cc3c21 | 5 nM
Nc1ncc(-c2nc(N3CCOCC3)c3ncc(-c4cncc(NC(=O)C5CC5)c4)cc3n2)cn1 | < 50 nM

(Q) Please tell me the measured IC50 for CC[C@H]1CN(c2nc3c(N4CCOCC4)nc(-c4cnc(N)nc4)nc3n2CC(F)(F)F)CCN1C(=O)[C@H](C)O ; system: Serine/threonine-protein kinase mTOR (Homo sapiens, UniProt P42345).
(A) 10 to 30 nM

(Q) Please tell me the measured IC50 for c1cc(-c2nc(N3CCOCC3)nc3c2ncn3CCC2OCCCO2)c2cc[nH]c2c1 ; system: Serine/threonine-protein kinase mTOR (Homo sapiens, UniProt P42345).
(A) 1000 to 5000 nM

(Q) Please tell me the measured IC50 for Oc1cccc(-c2nc(N3CCOCC3)nc3c2ncn3Cc2ccc(C(F)(F)F)cc2)c1 ; system: Serine/threonine-protein kinase mTOR (Homo sapiens, UniProt P42345).
(A) 1000 to 5000 nM

(Q) Please tell me the measured IC50 for CC(C)NCCOc1ncc(-c2cc3c(cc2F)ncc2c3[C@]3(C[C@H](OCc4ccccc4)C3)C(=O)N2C)cc1NS(C)(=O)=O ; system: Serine/threonine-protein kinase mTOR (Homo sapiens, UniProt P42345).
(A) > 100 nM

(Q) Please tell me the measured IC50 for O=c1[nH]c2ncc(-c3cccc4ncccc34)nc2n1CC1CCCC1 ; system: Serine/threonine-protein kinase mTOR (Homo sapiens, UniProt P42345).
(A) 100 to 5000 nM

(Q) Please tell me the measured IC50 for CO[C@@H]1CCO[C@H](Cn2c(=O)[nH]c3ncc(-c4cnc5[nH]ccc5c4)cc32)C1 ; system: Serine/threonine-protein kinase mTOR (Homo sapiens, UniProt P42345).
(A) < 50 nM

(Q) Please tell me the measured IC50 for Nc1ncc(-c2nc(N3CCOCC3)c3cc(-c4cccc(NS(=O)(=O)CCCF)c4F)cc(N4CCCC4)c3n2)cn1 ; system: Serine/threonine-protein kinase mTOR (Homo sapiens, UniProt P42345).
(A) 1 to 100 nM

(Q) Please tell me the measured IC50 for Nc1ccc(-c2nc(N3CCOCC3)c3nc(-c4cccc(NS(=O)(=O)c5c(F)cccc5F)c4F)ccc3n2)cn1 ; system: Serine/threonine-protein kinase mTOR (Homo sapiens, UniProt P42345).
(A) 1 to 100 nM

(Q) Please tell me the measured IC50 for CS(=O)(=O)c1cccc(-c2cnc3c(N4CCOCC4)nc(-c4cnc(N)nc4)nc3c2)c1 ; system: Serine/threonine-protein kinase mTOR (Homo sapiens, UniProt P42345).
(A) < 50 nM

(Q) Please tell me the measured IC50 for CC(C)Cn1c(N2CCN(C(=O)[C@H](C)O)CC2)nc2c(N3CCOC[C@@H]3C)nc(-c3cnc(N)nc3)nc21 ; system: Serine/threonine-protein kinase mTOR (Homo sapiens, UniProt P42345).
(A) 10 to 30 nM
